Target sequence: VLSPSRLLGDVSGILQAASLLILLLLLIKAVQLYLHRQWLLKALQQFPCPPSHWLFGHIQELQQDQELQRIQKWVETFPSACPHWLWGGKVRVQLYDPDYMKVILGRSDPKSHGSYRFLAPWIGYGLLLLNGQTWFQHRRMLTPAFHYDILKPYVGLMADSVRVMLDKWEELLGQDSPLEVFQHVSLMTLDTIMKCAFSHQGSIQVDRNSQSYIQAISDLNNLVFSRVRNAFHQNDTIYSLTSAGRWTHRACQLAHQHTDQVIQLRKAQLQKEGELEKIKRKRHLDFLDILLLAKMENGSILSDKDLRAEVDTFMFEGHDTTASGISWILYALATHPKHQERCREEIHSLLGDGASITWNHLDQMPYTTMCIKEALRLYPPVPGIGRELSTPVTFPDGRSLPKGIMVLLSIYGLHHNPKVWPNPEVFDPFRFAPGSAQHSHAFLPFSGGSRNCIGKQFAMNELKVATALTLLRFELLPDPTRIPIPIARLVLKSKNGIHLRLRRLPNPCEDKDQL
Classes are defined on IC50 with ranges low bracket: < 200 nM; middle bracket: ≥ 200 nM and < 2000 nM; high bracket: ≥ 2000 nM

molecule | label
CC(C)NC(=O)N1CCC[C@H](COc2ccc(-c3ccn[nH]3)nc2)C1 [Example 5-3] | middle bracket
O=C(CS(=O)(=O)c1cccc(COc2ccc(-c3ccn[nH]3)nc2)c1)N1CCC1 [Example 18-4] | low bracket
CC(=O)N[C@H]1CC[C@@H](Oc2ccc(-c3ccn[nH]3)nc2)CC1 [Example 20-6] | high bracket
Fc1ccc(COc2ccc(-c3ccn[nH]3)nc2)cc1Cl [54-6] | low bracket
CS(=O)(=O)c1cccc(COc2ccc(-c3[nH]ncc3C(F)(F)F)nc2)c1 [Example 40-1] | high bracket

Lookup: Could you tell me which band CS(=N)(=O)c1cccc(COc2ccc(-c3ccn[nH]3)nc2)c1 (racemic) [Example 50-1] belongs to?
Found: middle bracket

Lookup: Could you tell me which band NC(=O)NCCCC(=O)N1CCC[C@@H](COc2ccc(-c3ccn[nH]3)nc2)C1 [Example 3-21] belongs to?
Found: middle bracket

Lookup: Could you tell me which band CN(C)C(=O)NCCC(=O)N1CCC[C@@H](COc2ccc(-c3ccn[nH]3)nc2)C1 [Example 1-35] belongs to?
Found: middle bracket

Lookup: Could you tell me which band CS(=O)(=O)c1cccc(CCOc2ccc(-c3ccn[nH]3)nc2)c1 [Example 14-13] belongs to?
Found: high bracket
